tested on: COS Cell; test: COS Cell IC50 (Cell-Based Assay)
pIC50: −log10 of the molar value.

chemical-structure: CC(=O)CCCC(=O)N1CCC([C@H]2c3ncc(Br)cc3CCc3cc(Cl)cc(Br)c32)CC1
assayed-target: COS Cell
pIC50: 8.00

chemical-structure: CC(=O)CC(=O)CCC(=O)N1CCC([C@H]2c3ncc(Br)cc3CCc3cc(Cl)cc(Br)c32)CC1
assayed-target: COS Cell
pIC50: 6.76

chemical-structure: C/C(CCC(=O)N1CCC([C@H]2c3ncc(Br)cc3CCc3cc(Cl)cc(Br)c32)CC1)=N\O
assayed-target: COS Cell
pIC50: 7.28

chemical-structure: CC(=O)CCC(=O)N1CCC([C@H]2c3ncc(Br)cc3CCc3cc(Cl)cc(Br)c32)CC1
assayed-target: COS Cell
pIC50: 7.27
